Kindly supply the reported IC50 values for the records listed here.
# tested-on: Calpain-2 catalytic subunit (Sus scrofa)
# Sequence (P43367 whole entry): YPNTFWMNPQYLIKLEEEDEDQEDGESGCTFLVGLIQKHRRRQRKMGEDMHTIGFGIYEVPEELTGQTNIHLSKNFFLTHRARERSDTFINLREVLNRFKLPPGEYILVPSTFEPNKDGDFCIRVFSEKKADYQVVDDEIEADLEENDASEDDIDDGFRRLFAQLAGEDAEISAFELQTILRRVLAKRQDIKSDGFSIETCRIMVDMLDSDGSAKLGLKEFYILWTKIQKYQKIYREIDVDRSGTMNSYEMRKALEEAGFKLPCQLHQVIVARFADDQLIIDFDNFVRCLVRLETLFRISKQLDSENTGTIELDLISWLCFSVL
# measurement-notes: m-calpain protease blockers, concentration series – biochemical, fluorogenic peptide substrate, dose response (AID 1420)
# Format: functional
Active and inactive are the calls of the source. The rule behind the calls is not given here.

Notebook: COc1ccccc1/C=N/NC(=S)NCc1ccco1 , IC50 read as 8.4 µM (active)

Notebook: O=C(Nc1cccc2oc(=O)ccc12)c1ccc([N+](=O)[O-])cc1[N+](=O)[O-] , IC50 read as 5.83 µM (active)

Notebook: COc1cc(Cl)c(C)cc1NC(=O)CNC(C)c1ccccc1OC (stereo unspecified) , IC50 read as > 50 µM (not active)

Notebook: N#Cc1nc(COc2ccccc2)oc1N1CCN(c2cccc(Cl)c2)CC1 , IC50 read as 34.3 µM (not active)

Notebook: O=[N+]([O-])c1ccc(OC/C=C2\Oc3ccc([N+](=O)[O-])cc3C2N2CCOCC2)cc1 (stereo unspecified) , IC50 read as 6.21 µM (not active)

Notebook: Cc1ccc(NC(=O)CN2C(=O)/C(=C3\SC(=S)N(C4CCS(=O)(=O)C4)C3=O)c3ccccc32)cc1 (stereo unspecified) , IC50 read as 9.72 µM (not active)

Notebook: Cc1ccc(-c2nc(NCc3ccco3)c3ccccc3n2)cc1 , IC50 read as 7.69 µM (not active)

Notebook: O=C(NCCSCc1ccccc1)c1ccc(C2SCC(=O)N2Cc2ccccc2)cc1 (stereo unspecified) , IC50 read as 4.77 µM (not active)

Notebook: Cc1ccc(CNC(=O)c2oc3ccc(S(=O)(=O)N4CCOCC4)cc3c2C)cc1 , IC50 read as 23.5 µM (not active)

Notebook: COc1ccc(CNC(=O)CCCn2nc([N+](=O)[O-])cc2C)cc1 , IC50 read as < 0.4 µM (not active)

Notebook: CC1(C)c2ccccc2-n2c1cc1oc(=O)cc(O)c1c2=O , IC50 read as 1.02 µM (not active)

* * *

# tested-on: Induced myeloid leukemia cell differentiation protein Mcl-1 (Homo sapiens, UniProt Q07820)
# Sequence (Q07820 whole entry): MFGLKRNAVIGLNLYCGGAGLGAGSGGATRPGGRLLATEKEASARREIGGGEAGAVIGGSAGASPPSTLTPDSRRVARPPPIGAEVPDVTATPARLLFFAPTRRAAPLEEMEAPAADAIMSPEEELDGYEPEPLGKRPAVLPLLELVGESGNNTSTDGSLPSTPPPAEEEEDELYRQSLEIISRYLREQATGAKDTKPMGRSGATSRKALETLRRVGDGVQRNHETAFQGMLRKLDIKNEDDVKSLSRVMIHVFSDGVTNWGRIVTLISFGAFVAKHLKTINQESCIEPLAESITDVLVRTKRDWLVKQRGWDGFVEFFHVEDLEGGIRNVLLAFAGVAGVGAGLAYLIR
# Type: functional
Activity calls are given as the source filed them.
reported-property: IC50

Notebook: O=C(/C=C/c1ccc(Cl)c([N+](=O)[O-])c1)Nc1ccc(N2CCCC2)cc1 , IC50 read as > 54 µM (active)

Notebook: CCn1nc([N+](=O)[O-])c(C(C#N)c2nc3cc(C(F)(F)F)ccc3s2)c(Cl)c1=O (centres undefined) , IC50 read as 3.87 µM (active)

Notebook: CC(C)Cn1c(N)c(C(=O)COC(=O)c2cc(-c3ccco3)nc3ccccc23)c(=O)n(C)c1=O , IC50 read as 2.59 µM (active)

Notebook: Cc1ccc(N2C(=O)/C(=C\Nc3ccccc3-c3nnc(S)nc3O)c3ccccc3C2=O)cc1C , IC50 read as 3.26 µM (active)

Notebook: O=C1NC(=O)N(c2ccccc2)C(=O)/C1=C\c1ccc2c3c(cccc13)CC2 , IC50 read as 5.04 µM (active)

Notebook: O=c1oc2ccccc2cc1-c1csc(Nc2ccc(O)cc2)n1 , IC50 read as 2.76 µM (active)

Notebook: CN(C)c1ccc(NC(=O)Cn2ncn3c(cc4ccccc43)c2=O)cc1 , IC50 read as 3.14 µM (active)

Notebook: Cc1c2c(=O)n(-c3nc4ccccc4s3)nc-2cc(O)n1Cc1ccccc1 , IC50 read as 4.32 µM (active)

Notebook: Cc1ccc(NC(=O)CN2C(=O)/C(=C3\SC(=S)N(C4CCS(=O)(=O)C4)C3=O)c3ccccc32)cc1 (centres undefined) , IC50 read as 24.1 µM (active)
